Target: IDO1 (Homo sapiens, UniProt P14902)
Construct: endogenous in cells
Sequence (P14902 whole entry): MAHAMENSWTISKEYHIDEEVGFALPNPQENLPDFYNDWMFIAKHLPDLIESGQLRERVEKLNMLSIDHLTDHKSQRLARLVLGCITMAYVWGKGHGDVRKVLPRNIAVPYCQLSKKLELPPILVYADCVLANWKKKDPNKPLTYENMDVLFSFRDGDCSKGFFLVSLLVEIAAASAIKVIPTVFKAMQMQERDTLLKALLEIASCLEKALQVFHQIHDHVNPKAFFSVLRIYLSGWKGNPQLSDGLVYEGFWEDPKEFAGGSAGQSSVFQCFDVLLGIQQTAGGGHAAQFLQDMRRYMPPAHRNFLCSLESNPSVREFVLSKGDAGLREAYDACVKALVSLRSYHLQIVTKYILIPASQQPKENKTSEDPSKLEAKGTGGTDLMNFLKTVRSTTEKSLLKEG
Experiment: IDO1 cell-based assay (HeLa cells, IFNgamma-induced, N-formylkynurenine/L-tryptophan by RFMS)
Conditions: 10 ng/mL IFNgamma, 24 hours
Method: HeLa cells were obtained from the American Type Culture Collection (ATCC) and maintained in DMEM media containing 10% FBS. Cells (7,000/well) were seeded onto a 384 well plate in 50 μL of media and incubated at 37° C., 5% CO2 overnight. […] Samples were analyzed via RFMS to quantify N-Formyl Kynurenine (AUC) and L-tryptophan (AUC). […] Dose-response curves were analyzed using IC50 regression curve fitting (GeneData Screener). […]
Reported Metric: IC50

IN: Request - read-out IC50 | tested on IDO1 (Homo sapiens, UniProt P14902) | molecule CCC(NC(=O)c1ccc(Cl)cc1)[C@H]1[C@@H]2C[C@@H](n3ncc4ccc(F)cc43)C[C@@H]21 (stereo partly shown) [Compound 162]
OUT: < 200 nM

IN: Request - read-out IC50 | tested on IDO1 (Homo sapiens, UniProt P14902) | molecule CCC(NC(=O)c1ccc(Cl)cc1)[C@H]1[C@@H]2C[C@@H](N3C(=O)C(=O)c4ccccc43)C[C@@H]21 (stereo partly shown) [Compound 114]
OUT: 200 to 2000 nM

IN: Request - read-out IC50 | tested on IDO1 (Homo sapiens, UniProt P14902) | molecule CCC(NC(=O)c1ccc(Cl)cc1)C1[C@H]2CC(Oc3cnnc4ccccc34)C[C@@H]12 (stereo partly shown) [Compound 46]
OUT: < 200 nM

IN: Request - read-out IC50 | tested on IDO1 (Homo sapiens, UniProt P14902) | molecule CCc1cn([C@@H]2C[C@@H]3[C@H](C2)[C@H]3C(CC)NC(=O)c2ccc(Cl)cc2)nn1 (stereo partly shown) [Compound 167]
OUT: < 200 nM

IN: Request - read-out IC50 | tested on IDO1 (Homo sapiens, UniProt P14902) | molecule Clc1ccc(-c2nnc(C3C4CC(Oc5ccnc6ccccc56)CC43)o2)cc1 (stereo not shown) [Compound 11]
OUT: > 5000 nM

IN: Request - read-out IC50 | tested on IDO1 (Homo sapiens, UniProt P14902) | molecule CCC(NC(=O)c1ccc(Cl)cc1)[C@H]1[C@@H]2C[C@@H](n3nc4ccccc4n3)C[C@@H]21 (stereo partly shown) [Compound 100]
OUT: < 200 nM

IN: Request - read-out IC50 | tested on IDO1 (Homo sapiens, UniProt P14902) | molecule CCC(NC(=O)c1ccc(Cl)cc1)[C@H]1[C@@H]2C[C@@H](C(C(=O)OC)c3ccccc3)C[C@@H]21 (mixture of isomers) [Compound 202]
OUT: 200 to 2000 nM

###

biological target: IDO1 (Homo sapiens); construct: endogenous in cells; test: IDO1 cell-based assay (HeLa cells, IFNgamma-induced, N-formylkynurenine/L-tryptophan by RFMS); details: 10 ng/mL IFNgamma, 24 hours
Assignment: determine reported IC50 for the given molecules.

IN: Request - read-out IC50 | tested on IDO1 (Homo sapiens) | molecule CCC(NC(=O)c1ccc(Cl)cc1)[C@H]1[C@@H]2C[C@@H](Oc3ncccc3F)C[C@@H]21 (some centres unmarked)
OUT: < 200 nM

IN: Request - read-out IC50 | tested on IDO1 (Homo sapiens) | molecule N#Cc1ccc(C(=O)NC[C@@H]2[C@H]3C[C@H](n4cnc5cc(F)c(F)cc54)C[C@@H]23)cc1
OUT: < 200 nM

IN: Request - read-out IC50 | tested on IDO1 (Homo sapiens) | molecule CC[C@@H](NC(=O)c1ccc(Cl)cc1)[C@H]1[C@@H]2C[C@@H](n3ccc(C4CC4)n3)C[C@@H]21
OUT: < 200 nM

IN: Request - read-out IC50 | tested on IDO1 (Homo sapiens) | molecule CCC(NC(=O)c1ccc(Cl)cc1)[C@H]1[C@@H]2C[C@@H](n3cc4cccnc4n3)C[C@@H]21 (some centres unmarked)
OUT: < 200 nM

IN: Request - read-out IC50 | tested on IDO1 (Homo sapiens) | molecule CCC(NC(=O)c1ccc(C#N)cn1)C1C2CC(n3cnc4ccc(F)cc4c3=O)CC21 (centres unmarked)
OUT: 200 to 2000 nM

IN: Request - read-out IC50 | tested on IDO1 (Homo sapiens) | molecule CC(NC(=O)c1ccc(C#N)cc1)[C@H]1[C@@H]2C[C@@H](n3cc(C4CC4)nn3)C[C@@H]21 (some centres unmarked)
OUT: 200 to 2000 nM

IN: Request - read-out IC50 | tested on IDO1 (Homo sapiens) | molecule CCC(NC(=O)c1ccc(Cl)cc1)[C@H]1[C@@H]2C[C@@H](n3cnc(-c4ccccc4)c3)C[C@@H]21 (some centres unmarked)
OUT: < 200 nM

IN: Request - read-out IC50 | tested on IDO1 (Homo sapiens) | molecule Cc1ccc(C(=O)NC[C@@H]2[C@H]3C[C@H](n4cnc5cc(F)c(F)cc54)C[C@@H]23)cn1
OUT: 200 to 2000 nM

IN: Request - read-out IC50 | tested on IDO1 (Homo sapiens) | molecule CCC(NC(=O)c1ccc(Cl)cc1)[C@@H]1[C@H]2C=C(c3ncnc4cc(F)ccc34)C[C@H]21 (some centres unmarked)
OUT: 200 to 2000 nM

IN: Request - read-out IC50 | tested on IDO1 (Homo sapiens) | molecule CCC(NC(=O)c1ccc(Cl)cc1)[C@H]1[C@@H]2C[C@@H](n3ncnc3C3CC3)C[C@@H]21 (some centres unmarked)
OUT: 200 to 2000 nM

IN: Request - read-out IC50 | tested on IDO1 (Homo sapiens) | molecule CCC(NC(=O)c1ccc(Cl)cc1)[C@H]1[C@@H]2C[C@@H](NC(=O)c3cccnn3)C[C@@H]21 (some centres unmarked)
OUT: < 200 nM

IN: Request - read-out IC50 | tested on IDO1 (Homo sapiens) | molecule CCC(NC(=O)c1ccc(C#N)cc1)[C@H]1[C@@H]2C[C@@H](n3cnc4ccc(F)cc4c3=O)C[C@@H]21 (some centres unmarked)
OUT: < 200 nM

IN: Request - read-out IC50 | tested on IDO1 (Homo sapiens) | molecule CC[C@@H](NC(=O)c1ccc(C#N)cc1)[C@H]1[C@@H]2CC(N=[N+]=[N-])C[C@@H]21 (some centres unmarked)
OUT: < 200 nM

IN: Request - read-out IC50 | tested on IDO1 (Homo sapiens) | molecule CC(NC(=O)c1ccc(C#N)cc1)[C@H]1[C@@H]2C[C@@H](NC(=O)c3ccccn3)C[C@@H]21 (some centres unmarked)
OUT: < 200 nM

###

molecular target: mouse IDO1 (Mus musculus, UniProt P28776); construct: The murine PANC02 pancreatic ductal adenocarcinoma cell line was routinely maintained in DMEM media; endogenous in cells; experiment: Mouse IDO1 cell-based assay (PANC02 cells, mouse IFNgamma-induced, N-formylkynurenine/L-tryptophan by RFMS); settings: 30 ng/mL mouse IFNgamma, 48 hours
Sequence (P28776 whole entry): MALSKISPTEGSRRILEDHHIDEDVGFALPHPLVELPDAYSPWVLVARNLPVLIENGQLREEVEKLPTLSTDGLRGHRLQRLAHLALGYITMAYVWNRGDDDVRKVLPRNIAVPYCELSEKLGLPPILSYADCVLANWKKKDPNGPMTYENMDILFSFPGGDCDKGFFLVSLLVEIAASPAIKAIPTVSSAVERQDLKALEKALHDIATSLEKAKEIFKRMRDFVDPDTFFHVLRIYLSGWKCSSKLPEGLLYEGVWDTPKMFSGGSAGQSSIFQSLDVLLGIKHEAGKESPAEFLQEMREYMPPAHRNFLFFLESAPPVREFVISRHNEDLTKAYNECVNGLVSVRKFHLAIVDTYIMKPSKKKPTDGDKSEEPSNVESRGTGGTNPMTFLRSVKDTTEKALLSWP
pIC50: −log10 of the molar value.
Assignment: determine reported pIC50 for the given compounds.

IN: Any idea what pIC50 was measured for CCC(NC(=O)c1ccc(Cl)cc1)[C@H]1[C@@H]2C[C@@H](n3c(=O)n(C)c4ccccc43)C[C@@H]21 (stereo partly shown) ?
OUT: > 6.30

IN: Any idea what pIC50 was measured for CCC(NC(=O)c1ccc(Cl)cc1)[C@H]1[C@@H]2C[C@@H](n3cc(NC(C)=O)nn3)C[C@@H]21 (stereo partly shown) ?
OUT: < 5.30

IN: Any idea what pIC50 was measured for CC[C@H](NC(=O)c1ccc(Cl)cc1)[C@H]1[C@@H]2C[C@@H](n3cnc4ccc(F)cc43)C[C@@H]21 ?
OUT: > 6.30

IN: Any idea what pIC50 was measured for CCC(NC(=O)c1ccc(Cl)cc1)[C@H]1[C@@H]2C[C@H](n3cc(CO)nn3)C[C@@H]21 (stereo partly shown) ?
OUT: 5.30 to 5.70

###

Assignment: determine reported IC50 for the given molecules.
target: mouse IDO1 (Mus musculus); construct: The murine PANC02 pancreatic ductal adenocarcinoma cell line was routinely maintained in DMEM media; endogenous in cells; assay: Mouse IDO1 cell-based assay (PANC02 cells, mouse IFNgamma-induced, N-formylkynurenine/L-tryptophan by RFMS); settings: 30 ng/mL mouse IFNgamma, 48 hours

IN: Any idea what IC50 was measured for CCC(NC(=O)c1ccc(Cl)cc1)[C@H]1[C@@H]2C[C@@H](n3cc4cccc(F)c4n3)C[C@@H]21 (some centres unmarked) ?
OUT: < 500 nM

IN: Any idea what IC50 was measured for CCC(NC(=O)c1ccc(Cl)cc1)[C@H]1[C@@H]2C[C@@H](NC(=O)c3cccnc3)C[C@@H]21 (some centres unmarked) ?
OUT: > 5000 nM

IN: Any idea what IC50 was measured for CCC(NC(=O)c1ccc(Cl)cc1)[C@H]1[C@@H]2C[C@@H](NC(=O)c3ccc(OC)cn3)C[C@@H]21 (some centres unmarked) ?
OUT: 500 to 2000 nM

IN: Any idea what IC50 was measured for CCC(NC(=O)c1ccc(Cl)cc1)[C@H]1[C@@H]2C[C@@H](n3cc(N4C(=O)c5ccccc5C4=O)nn3)C[C@@H]21 (some centres unmarked) ?
OUT: > 5000 nM

IN: Any idea what IC50 was measured for CCC(NC(=O)c1ccc(Cl)cc1)[C@H]1[C@@H]2C[C@@H](NC(=O)c3ccc(F)cn3)C[C@@H]21 (some centres unmarked) ?
OUT: 500 to 2000 nM

IN: Any idea what IC50 was measured for CCC(NC(=O)c1ccc(Cl)cc1)[C@H]1[C@@H]2C[C@H](n3cc(COCCOC)nn3)C[C@@H]21 (some centres unmarked) ?
OUT: 500 to 2000 nM

IN: Any idea what IC50 was measured for C[C@H](NC(=O)c1ccc(C#N)cc1)[C@H]1[C@@H]2C[C@@H](Oc3ncnc4ccc(F)cc34)C[C@@H]21 ?
OUT: < 500 nM

IN: Any idea what IC50 was measured for CCC(NC(=O)c1ccc(Cl)cc1)[C@H]1[C@@H]2C[C@@H](N3CCOC3=O)C[C@@H]21 (some centres unmarked) ?
OUT: 2000 to 5000 nM

IN: Any idea what IC50 was measured for CCC(NC(=O)c1ccc(Cl)cc1)[C@H]1[C@@H]2C[C@@H](n3cc4ccc(F)cc4n3)C[C@@H]21 (some centres unmarked) ?
OUT: < 500 nM

IN: Any idea what IC50 was measured for CCC(NC(=O)c1ccc(Cl)cc1)[C@H]1[C@@H]2C[C@@H](n3cc4cccnc4n3)C[C@@H]21 (some centres unmarked) ?
OUT: < 500 nM

IN: Any idea what IC50 was measured for CCC(NC(=O)c1ccc(Cl)cc1)[C@H]1[C@@H]2C[C@@H](n3cc(N(C)C)nn3)C[C@@H]21 (some centres unmarked) ?
OUT: < 500 nM

IN: Any idea what IC50 was measured for COCc1cn([C@@H]2C[C@@H]3[C@H](C2)[C@H]3C(C)NC(=O)c2ccc(C#N)cc2)nn1 (some centres unmarked) ?
OUT: > 5000 nM

IN: Any idea what IC50 was measured for O=C(NCc1ccc(Cl)cc1)[C@H]1[C@@H]2CN(c3ncnc4ccc(F)cc34)C[C@@H]21 ?
OUT: > 5000 nM

IN: Any idea what IC50 was measured for CCC(NC(=O)c1ccc(Cl)cc1)[C@H]1[C@@H]2C[C@@H](NC(=O)c3ncccc3F)C[C@@H]21 (some centres unmarked) ?
OUT: 500 to 2000 nM

Measured values drawn from patent US11173145B2 for this set.
